Biological target: KDM4C (JMJD2C) (Homo sapiens, UniProt Q9H3R0)
Construct: KDM4C; BRIC, Denmark; 1-349; E. coli; host or cells: E. coli
Sequence (Q9H3R0 1-349): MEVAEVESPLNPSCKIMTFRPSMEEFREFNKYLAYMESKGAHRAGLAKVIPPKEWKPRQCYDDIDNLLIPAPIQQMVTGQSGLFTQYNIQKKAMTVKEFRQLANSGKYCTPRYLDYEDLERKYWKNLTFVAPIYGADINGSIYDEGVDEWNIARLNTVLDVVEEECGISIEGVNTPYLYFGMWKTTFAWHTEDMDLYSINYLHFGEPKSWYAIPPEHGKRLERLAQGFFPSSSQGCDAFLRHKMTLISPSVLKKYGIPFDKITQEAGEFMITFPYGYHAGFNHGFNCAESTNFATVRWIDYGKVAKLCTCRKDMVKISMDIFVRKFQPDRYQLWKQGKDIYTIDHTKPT
Assay: Histone lysine demethylase AlphaLISA assay, KDM4C
Assay type: biochemical
Details: AlphaLISA assay; read-out: HDME Inhibition KDM4C (IC50)
pIC50: −log10 of the molar value.
This listing pairs compounds with measured pIC50.

Known results for compounds:
{"compound": "Cc1cc(C(=O)O)cc(CNCc2nnc(C)n2Cc2ccc(F)cc2)n1", "systemTested": "KDM4C (JMJD2C) (Homo sapiens, UniProt Q9H3R0)", "pIC50": "< 5.00"}
{"compound": "C=CCn1ccnc1CNCc1cc(C(=O)O)cc(C)n1", "systemTested": "KDM4C (JMJD2C) (Homo sapiens, UniProt Q9H3R0)", "pIC50": "< 5.00"}
{"compound": "Cc1cc(C(=O)O)cc(CNCCc2ncccc2CCC(C)C)n1", "systemTested": "KDM4C (JMJD2C) (Homo sapiens, UniProt Q9H3R0)", "pIC50": "< 5.00"}
{"compound": "Cc1cc(C(=O)O)cc(CNCc2nccn2CC(C)C)n1", "systemTested": "KDM4C (JMJD2C) (Homo sapiens, UniProt Q9H3R0)", "pIC50": "< 5.00"}
{"compound": "Cc1cc(C(=O)O)cc(CNC2CCCc3cccnc32)n1 (stereo not shown)", "systemTested": "KDM4C (JMJD2C) (Homo sapiens, UniProt Q9H3R0)", "pIC50": "< 5.00"}
{"compound": "Cc1cc(C(=O)O)cc(CNCCc2ncccc2-c2ccsc2)n1", "systemTested": "KDM4C (JMJD2C) (Homo sapiens, UniProt Q9H3R0)", "pIC50": "< 5.00"}
{"compound": "CC#CCC(c1ccc(F)cc1)n1ccnc1CNCc1cc(C(=O)O)cc(C)n1 (stereo not shown)", "systemTested": "KDM4C (JMJD2C) (Homo sapiens, UniProt Q9H3R0)", "pIC50": "< 5.00"}
{"compound": "Cc1cc(C(=O)O)cc(CN[C@H]2CCc3cccnc32)n1", "systemTested": "KDM4C (JMJD2C) (Homo sapiens, UniProt Q9H3R0)", "pIC50": "< 5.00"}

Lab note: measured pIC50 of CCc1cnc(CNCc2cc(C(=O)O)cc(CO)n2)n1Cc1ccc(F)cc1 was < 5.00

Lab note: measured pIC50 of Cc1nnc(CNCc2cc(C(=O)O)cc(CO)n2)n1Cc1ccc(F)cc1 was < 5.00

Lab note: measured pIC50 of CC(C)Cc1ccc(OCc2ccccc2)nc1CNCc1cc(C(=O)O)cc(CO)n1 was < 5.00

----------
Molecular target: KDM4C (JMJD2C) (Homo sapiens, UniProt Q9H3R0)
Construct: KDM4C; BRIC, Denmark; 1-349; E. coli; host or cells: E. coli
Assay: Histone lysine demethylase AlphaLISA assay, KDM4C
Format: biochemical
Conditions: AlphaLISA, in vitro; read-out: HDME Inhibition KDM4C
pIC50: −log10 of the molar value.
This listing pairs compounds with measured pIC50.

{"compound": "Cc1cc(C(=O)O)cc(CNCc2nnc(C)n2Cc2ccc(Cl)c(Cl)c2)n1 [Compound 57]", "reportedMeasurement": "< 5.00"}
{"compound": "NCc1cc(C(=O)O)cc(CN)n1 [Compound 110]", "reportedMeasurement": "< 5.00"}
{"compound": "CCOc1ccc(CC(C)C)c(CNCc2cc(C(=O)O)cc(CO)n2)n1 [Compound 101]", "reportedMeasurement": "< 5.00"}

// assay KDM4C (JMJD2C) (Homo sapiens, UniProt Q9H3R0), entry O=C(O)c1cc(CO)nc(CNCc2nnc(-c3cccs3)n2CCCc2ccccc2)c1 [Compound 95] , pIC50 value = < 5.00

// assay KDM4C (JMJD2C) (Homo sapiens, UniProt Q9H3R0), entry Cc1cc(C(=O)O)cc(CNCc2nncn2CCc2cc(Cl)cc(Cl)c2)n1 [Compound 51] , pIC50 value = < 5.00

----------
Target: KDM2B (FBXL10) (Homo sapiens, UniProt Q8NHM5)
Construct: KDM2B; BPS,; 1-650; Bac; purchased BPS Bioscience, US; host or cells: baculovirus system
Sequence (Q8NHM5 1-650): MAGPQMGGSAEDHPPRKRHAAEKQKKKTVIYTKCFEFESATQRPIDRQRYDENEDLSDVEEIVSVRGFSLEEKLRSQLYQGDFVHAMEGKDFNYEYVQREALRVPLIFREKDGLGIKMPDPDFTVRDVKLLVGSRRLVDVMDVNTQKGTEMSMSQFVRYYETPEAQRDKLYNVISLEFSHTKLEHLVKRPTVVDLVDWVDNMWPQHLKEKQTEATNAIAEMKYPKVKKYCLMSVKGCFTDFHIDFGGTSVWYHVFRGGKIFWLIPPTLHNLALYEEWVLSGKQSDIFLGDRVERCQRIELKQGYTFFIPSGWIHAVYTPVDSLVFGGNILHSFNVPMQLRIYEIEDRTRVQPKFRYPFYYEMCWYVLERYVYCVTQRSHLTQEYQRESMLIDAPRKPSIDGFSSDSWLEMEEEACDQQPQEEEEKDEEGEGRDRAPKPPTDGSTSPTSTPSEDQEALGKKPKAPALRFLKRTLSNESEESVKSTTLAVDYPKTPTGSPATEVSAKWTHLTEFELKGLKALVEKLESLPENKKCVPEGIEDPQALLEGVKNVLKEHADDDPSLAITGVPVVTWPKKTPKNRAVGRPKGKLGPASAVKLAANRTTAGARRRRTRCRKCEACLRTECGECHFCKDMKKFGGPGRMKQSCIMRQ
Test: Histone lysine demethylase AlphaLISA assay, KDM2B
Assay type: biochemical
Conditions: AlphaLISA, in vitro; read-out: HDME Inhibition KDM2B
observable: pIC50
The meaning of pIC50 here: minus log10 of the concentration in molar units.

Known results for compounds:
{"compound": "COc1ccc(CC(C)C)c(CNCc2cc(C(=O)O)cc(C)n2)n1 [Compound 74]", "pIC50": 5.73}
{"compound": "CCc1cnc(CNCc2cc(C(=O)O)cc(C)n2)n1Cc1cccs1 [Compound 115]", "pIC50": 7.28}

Lab note: measured pIC50 of Cc1cc(C(=O)O)cc(CNCc2nncn2C/C=C/c2ccccc2)n1 [Compound 67] was 6.15

Lab note: measured pIC50 of CCc1nnc(CNCc2cc(C(=O)O)cc(CO)n2)n1Cc1ccc(F)cc1 [Compound 64] was 6.98

----------
Molecular target: KDM2B (FBXL10) (Homo sapiens)
Construct: KDM2B; BPS,; 1-650; Bac; purchased BPS Bioscience, US; host or cells: baculovirus system
Test: Histone lysine demethylase AlphaLISA assay, KDM2B
Assay type: biochemical
Details: AlphaLISA, in vitro; read-out: HDME Inhibition KDM2B
observable: pIC50
The meaning of pIC50 here: minus log10 of the concentration in molar units.

Known results for compounds:
{"smilesRepresentation": "Cc1cc(C(=O)O)cc(CNCCc2ncccc2Br)n1", "systemTested": "KDM2B (FBXL10) (Homo sapiens)", "pIC50": 5.81}
{"smilesRepresentation": "C=Cc1cc(C(=O)O)cc(CNCc2nccn2Cc2ccc(F)cc2)n1", "systemTested": "KDM2B (FBXL10) (Homo sapiens)", "pIC50": 5.80}
{"smilesRepresentation": "Cc1cc(C(=O)O)cc(CN[C@H]2CCc3cccnc32)n1", "systemTested": "KDM2B (FBXL10) (Homo sapiens)", "pIC50": 5.15}
{"smilesRepresentation": "O=C(O)c1cc(CO)nc(CNCc2nncn2CCc2cc(Cl)cc(Cl)c2)c1", "systemTested": "KDM2B (FBXL10) (Homo sapiens)", "pIC50": 6.18}

Lab note: measured pIC50 of CCc1cnc(CNCc2cc(C(=O)O)cc(C)n2)n1CCCc1ccccc1 was 6.88

Lab note: measured pIC50 of Cc1nc(CNCc2cc(C(=O)O)cc(CO)n2)n(Cc2ccc(F)cc2)c1C was 5.82

Lab note: measured pIC50 of CCN(CCN(C)C)C(=O)CNCc1cc(C(=O)O)cc(C)n1 was 6.28

Lab note: measured pIC50 of Cc1cc(C(=O)O)cc(CNCc2nnc(C(C)(C)C)n2Cc2ccc(F)cc2)n1 was 6.08
